The origin of these recorded values is PubChem BioAssay (NCI).

- Test system: NCI-H522 lung
- test-summary: NCI tumour cell line growth inhibition, 48 h
assay-readout: TGI

Q: Sample O=c1ccc(=O)c2c1c1[nH]c3ccccc3c1c1c(=O)c3ccccc3c(=O)c21 — what was its TGI?
A: > 10 µM

Q: Quick one: CC1(O)CC23CC(O)C4(O)C(CC(O)C4(C)C)C(C)(O)C2CCC1C3O (configuration not stated)
A: > 100 µM

Q: Quick one: COc1ccc(C2NC(c3ccc(OC)cc3)C(C)C(=O)C2C)cc1 (configuration not stated)
A: > 100 µM

Q: Quick one: CC[P+](c1ccccc1)(N(C)C)N(C)C
A: > 100 µM

Q: Quick one: FC(F)(Sc1ncccn1)c1nc2ccccc2o1
A: > 100 µM

Q: Quick one: CN(C)c1ccc(/C=C2\N=C(c3ccccc3)N(c3nc4ccc(Sc5ccccc5)cc4[nH]3)C2=O)cc1
A: > 100 µM

Q: Quick one: CCOC(=O)CC1(N)CC2c3ccccc3OC(=O)C2C(=O)N1 (configuration not stated)
A: > 100 µM

Q: Quick one: Clc1ccc(/C=C/c2csnn2)cc1
A: > 100 µM

Q: Quick one: Cc1cc(C)c(C2=NO[C@@H]3[C@H]2C(=O)C=C2N(Cc4ccccc4)CCO[C@@]23O)c(C)c1
A: > 100 µM

Q: Quick one: Cc1cc2nc3c(C(OC4OC(CO)C(O)C(O)C4O)C(O)CO)nn(-c4ccc(F)cc4)c3nc2cc1C (configuration not stated)
A: > 100 µM

Q: Quick one: O=C([CH-]C(=O)c1ccccc1)c1ccccc1.[CH2-]C.[CH2-]C.[Tl+3]
A: > 85.2 µM

Q: Quick one: CC(C)(C)OC(=O)N1CCC2(CC1)C(=O)NCN2c1ccccc1
A: > 100 µM
